- ASSAY: Solubility of Compound (1) forms in non-aqueous excipients (HPLC of filtrate)
- Type: physicochemical
- COND: propylene glycol (non-aqueous excipient), organic solvent or mixture, thermodynamic from solid, excipient Propylene Glycol; room temperature, up to 4 days; read-out: Solubility
Structures can show the parent of a compound that is named as a salt.
PARAMETER: Solubility

Data request: Bench note: what Solubility did C=C[C@@H]1C[C@]1(NC(=O)[C@@H]1C[C@H](Oc2cc(-c3csc(NC(=O)C(C)C)n3)nc3c(Br)c(OC)ccc23)CN1C(=O)[C@@H](NC(=O)OC1CCCC1)C(C)(C)C)C(=O)O [Compound (1) Na salt] show?
Data returned: > 468 mg/mL

---

- ASSAY: Solubility of Compound (1) forms in non-aqueous excipients (HPLC of filtrate)
- Assay type: physicochemical
- COND: Capmul PG8 (non-aqueous excipient), oil or lipid, thermodynamic from solid, excipient Capmul PG8; room temperature, up to 4 days; read-out: Solubility
- Protocol: The solubility of Compound (1), as either Type A or the sodium salt form, was investigated in various non-aqueous solvents. The solutions were prepared by addition of excess Compound (1) to 0.25 ml to 1.0 ml of excipient in amber screw cap vials with Teflon lined caps. The samples were allowed to rotate at room temperature for up to 4 days. […] The wavelength of detection was set at 220 nm or 264 nm Wet solids were collected and analyzed for form change (stability) by XRPD.
Where a name gives a salt, the structure may show the parent alone.
PARAMETER: Solubility

Data request: Bench note: what Solubility did C=C[C@@H]1C[C@]1(NC(=O)[C@@H]1C[C@H](Oc2cc(-c3csc(NC(=O)C(C)C)n3)nc3c(Br)c(OC)ccc23)CN1C(=O)[C@@H](NC(=O)OC1CCCC1)C(C)(C)C)C(=O)O [Compound (1) Na salt] show?
Data returned: < 169 mg/mL

---

- ASSAY: Solubility of Compound (1) forms in non-aqueous excipients (HPLC of filtrate)
- Format: physicochemical
- COND: Labrasol (non-aqueous excipient), oil or lipid, thermodynamic from solid, excipient Labrasol; room temperature, up to 4 days; read-out: Solubility
- Protocol: The solubility of Compound (1), as either Type A or the sodium salt form, was investigated in various non-aqueous solvents. The solutions were prepared by addition of excess Compound (1) to 0.25 ml to 1.0 ml of excipient in amber screw cap vials with Teflon lined caps. The samples were allowed to rotate at room temperature for up to 4 days. […] The wavelength of detection was set at 220 nm or 264 nm Wet solids were collected and analyzed for form change (stability) by XRPD.
Counter-ions that a name gives are not always drawn.
PARAMETER: Solubility (mg/mL)
Write it as a number; the unit mg/mL goes unstated.

Data request: Bench note: what Solubility did C=C[C@@H]1C[C@]1(NC(=O)[C@@H]1C[C@H](Oc2cc(-c3csc(NC(=O)C(C)C)n3)nc3c(Br)c(OC)ccc23)CN1C(=O)[C@@H](NC(=O)OC1CCCC1)C(C)(C)C)C(=O)O [Compound (1) Na salt] show?
Data returned: 175

---

- ASSAY: Solubility of Compound (1) forms in non-aqueous excipients (HPLC of filtrate)
- Format: physicochemical
- COND: Capmul MCM (non-aqueous excipient), oil or lipid, thermodynamic from solid, excipient Capmul MCM; room temperature, up to 4 days; read-out: Solubility
Counter-ions that a name gives are not always drawn.
PARAMETER: Solubility (mg/mL)
Write it as a number; the unit mg/mL goes unstated.

Data request: Bench note: what Solubility did C=C[C@@H]1C[C@]1(NC(=O)[C@@H]1C[C@H](Oc2cc(-c3csc(NC(=O)C(C)C)n3)nc3c(Br)c(OC)ccc23)CN1C(=O)[C@@H](NC(=O)OC1CCCC1)C(C)(C)C)C(=O)O [Compound (1) Na salt] show?
Data returned: 262
